Tested on: Plasmodium berghei
PROTOCOL NOTES: Luciferase/luciferin-expressing antifolate-resistant parasites were used to infect a culture of HepG2 cells that were pre-incubated with compounds. Infected hepatocytes emit light due to the luciferase reaction. Assay results are presented as the percent inhibition of light emission compared to control. […]
Assay type: functional
CONDITION SUMMARY: sporozoite, read-out: LUCIFERASE INFECTION ASSAY - IC90
QUANTITY KIND: IC90

Sample answers from the record:
{"COMPOUND": "O=C(Nc1ccc2c(c1)OCO2)c1csc(C(O)c2cccc(C(F)(F)F)c2)n1 (stereo unspecified)", "QUANTITY KIND": "IC90", "VALUE REPORTED": "> 10 µM"}
{"COMPOUND": "CCOC(=O)c1c(C)[nH]c(C)c1C(=O)COC(=O)c1c(OC)cccc1OC", "QUANTITY KIND": "IC90", "VALUE REPORTED": "> 10 µM"}
{"COMPOUND": "O=C(Nc1ccccc1)Nc1cc(NC(=O)Nc2ccccc2)cc(C(F)(F)F)c1", "QUANTITY KIND": "IC90", "VALUE REPORTED": "> 7.96 µM"}

Give IC90 for all compounds that follow.
1. CCCN(CC(=O)N1N=C(c2ccc(C)cc2)CC1c1ccco1)Cc1nnc(-c2ccco2)o1 (stereo unspecified)
2. NC(c1csc(Nc2cc(NCc3ccco3)ncn2)n1)C1CCCCC1 (stereo unspecified)
3. Nc1nc(-c2c[nH]c3ccccc23)c(-c2ccccc2)s1

> 10 µM
> 8.58 µM
> 10 µM
